# Test Target: α-chymotrypsin (Bos taurus, UniProt P00766)
# Construct: purchased Sigma Chem. Co. C-3142
# Method Description: Inhibition of α-chymotrypsin
# Format: biochemical
# Setup Conditions: Table III; 10 uM; read-out: Chymotrypsin % I @ 10 uM
Square brackets hold non-standard residues; d marks the D form. Peptide text beside a SMILES is read from it. * marks the point of attachment. Ms = CS(=O)(=O)*
Quantity Measured: inhibition at 10 µM
The number alone won't do; follow it with the unit.

Molecule	Test Target	Readout Value
O=C[C@H](Cc1ccccc1)NC(=O)[C@@H](COCc1ccccc1)NC(=O)c1ccccc1	α-chymotrypsin (Bos taurus, UniProt P00766)	0%

Give one value of inhibition at 10 µM per listed molecule.
1. CC(C)C[C@@H](NS(C)(=O)=O)C(=O)N[C@H](C=O)Cc1ccccc1 [Compound 86] (Ms-[dL]-Phe-aldehyde)
2. O=C[C@H](Cc1ccccc1)NC(=O)[C@@H](Cc1ccccc1)NS(=O)(=O)c1cccs1

1. 8%
2. 2%

Reported inhibition at 10 µM, molecule "CN([C@H](COCc1ccccc1)C(=O)N[C@H](C=O)Cc1ccccc1)S(C)(=O)=O" : ____
0%

----------
# Test Target: Recombinant human calpain I (Homo sapiens)
# Construct: made in house
# Sequence (P07384 whole entry): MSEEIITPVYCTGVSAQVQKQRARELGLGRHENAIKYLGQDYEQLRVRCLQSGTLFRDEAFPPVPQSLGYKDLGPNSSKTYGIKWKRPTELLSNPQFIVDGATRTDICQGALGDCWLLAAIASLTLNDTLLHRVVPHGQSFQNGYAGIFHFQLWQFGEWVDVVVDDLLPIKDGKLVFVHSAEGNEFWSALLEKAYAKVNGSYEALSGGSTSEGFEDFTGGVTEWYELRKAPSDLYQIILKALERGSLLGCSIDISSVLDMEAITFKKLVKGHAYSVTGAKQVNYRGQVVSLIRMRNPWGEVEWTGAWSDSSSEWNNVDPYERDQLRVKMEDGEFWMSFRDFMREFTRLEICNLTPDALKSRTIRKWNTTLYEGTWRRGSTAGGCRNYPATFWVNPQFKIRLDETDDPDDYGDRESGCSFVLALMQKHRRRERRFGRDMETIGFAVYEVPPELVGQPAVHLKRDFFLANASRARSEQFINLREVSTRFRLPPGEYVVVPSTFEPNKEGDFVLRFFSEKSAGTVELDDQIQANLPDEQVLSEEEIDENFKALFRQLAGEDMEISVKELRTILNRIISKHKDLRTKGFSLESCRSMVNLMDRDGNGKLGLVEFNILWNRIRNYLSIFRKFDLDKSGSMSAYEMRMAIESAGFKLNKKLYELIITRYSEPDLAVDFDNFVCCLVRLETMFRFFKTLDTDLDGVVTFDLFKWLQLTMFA
# Method Description: Inhibition of calpain I activity
# Assay type: biochemical
# Setup Conditions: Table III; 0.1 uM
Square brackets hold non-standard residues; d marks the D form. Peptide text beside a SMILES is read from it. * marks the point of attachment. d(hPhe) = N[C@H](CCc1ccccc1)C(=O)O; Tos = Cc1ccc(S(=O)(=O)*)cc1; Bn = c1ccc(C*)cc1; Ms = CS(=O)(=O)*
I'd appreciate it if you could label each record using inhibition at 0.1 µM and these ranges: lower band = under 60%, central band = from 60% up to 90%, upper band = 90% and over

Compound	Class Name
Cc1ccc(S(=O)(=O)N2CCC[C@@H]2C(=O)N[C@H](C=O)Cc2ccccc2)cc1 [Compound 120] (Tos-[dP]-Phe-aldehyde)	central band

Into which category would you place "CON=C[C@H](Cc1ccccc1)NC(=O)[C@@H](COCc1ccccc1)NS(C)(=O)=O" ?
lower band

Another compound to check: "Cc1ccc(S(=O)(=O)N2C[C@@H](C#N)C[C@@H]2C(=O)N[C@H](C=O)Cc2ccccc2)cc1"
central band

Also check "O=C[C@H](Cc1ccccc1)NC(=O)[C@@H](COCc1ccccc1)NC(=O)C(c1ccccc1)c1ccccc1"
lower band

// repeat for "CC(C)(C)OC(=O)N[C@H](COCc1ccccc1)C(=O)N[C@H](C=O)Cc1ccccc1" and report
lower band

One more compound: "C[C@@H](NS(=O)(=O)c1ccccc1)C(=O)N[C@H](C=O)Cc1ccccc1"
lower band

Likewise for "O=C[C@H](Cc1ccccc1)NC(=O)[C@@H](COCc1ccccc1)N1C(=O)c2ccccc2C1=O" ?
lower band

Request: "CN1CCN(C)C1[C@H](Cc1ccccc1)NC(=O)[C@@H](COCc1ccccc1)NS(C)(=O)=O"
upper band

And for C[C@H](OCc1ccccc1)[C@@H](NS(C)(=O)=O)C(=O)N[C@H](C=O)Cc1ccccc1 [Compound 43] (Ms-[dT](Bn)-Phe-aldehyde) ?
upper band

And what about the compound "O=C[C@H](Cc1ccccc1)NC(=O)[C@@H](COCc1ccccc1)NS(=O)(=O)c1ccc2ccccc2c1" ?
upper band

Let us now turn to CS(=O)(=O)N[C@H](CCc1ccccc1)C(=O)N[C@H](C=O)Cc1ccccc1 [Compound 62] (Ms-[d(hPhe)]-Phe-aldehyde)
central band

Field entry: "CS(=O)(=O)N[C@H](C(=O)N[C@H](C=O)Cc1ccccc1)c1cccs1"
central band

How about "O=C[C@H](Cc1ccccc1)NC(=O)[C@@H](COCc1ccccc1)NS(=O)(=O)c1cccs1" ?
upper band

# repeat for CS(=O)(=O)NC(CCSCc1ccccc1)C(=O)N[C@H](C=O)Cc1ccccc1 (single isomer, unassigned)
central band
